# experimentalDetails: Drug uptake in mouse nucleus accumbens assessed as 7-chloro-5-(3-furyl)-3- methyl-4H-1,2,4-benzothiadiazine 1,1-dioxide level at 20 mg/kg, ip measured after 1 hr
# Format: ADME, organism-based
# Design: dose 20 mg/kg, route intraperitoneal
# appliedConditions: in vivo, read-out: Drug uptake
outcomeMeasure: concentration (µM)
Numbers only, in µM.

Consider CC1Nc2c(-c3ccoc3)cc(Cl)cc2S(=O)(=O)N1 (stereo unspecified) . Its measured concentration is 8

###

# experimentalDetails: Positive allosteric modulation at AMPA receptor in primary cortical neurons assessed as potentiation of kainate-induced current by patch clamp analysis
# Assay type: cell-based
# appliedConditions: Cerebral cortex neuron
outcomeMeasure: EC50 (µM)
One number for each entry, in µM.

Consider CC1Nc2c(-c3ccoc3)cc(Cl)cc2S(=O)(=O)N1 (stereo unspecified) . Its measured EC50 is 1.3

###

# System: Cerebral cortex neuron
# experimentalDetails: Positive allosteric modulation at AMPA receptor in primary cortical neurons assessed as potentiation of kainate-induced current at 10 uM by patch clamp analysis
# Assay type: cell-based
outcomeMeasure: Activity (%)
Numbers only, in %.

Answered cases to consult:
compound	assaySystem	Activity [%]
CC1Nc2c(-c3ccsc3)cc(Cl)cc2S(=O)(=O)N1 (configuration not stated)	Cerebral cortex neuron	214
CC1Nc2c(-c3ccco3)cc(Cl)cc2S(=O)(=O)N1 (configuration not stated)	Cerebral cortex neuron	80

// for each compound below, give its Activity
1. CC1Nc2c(-c3ccoc3)cc(Cl)cc2S(=O)(=O)N1 (configuration not stated)
2. CC1CN2c3c1cc(Cl)cc3S(=O)(=O)NC2C (racemic)
3. O=S1(=O)NCNc2c(-c3ccco3)cc(Cl)cc21

Given back:
358
53
20
